# test_system: AtHPPD (Arabidopsis thaliana, UniProt P93836)
# Construct: gene HPD; recombinant enzyme supplied by Guangfu Yang research team; Fe(II) enzyme; PDB 1TFZ used for docking only
# measurement_protocol: HGD-coupled assay, maleylacetoacetate at […] nm
# Type: biochemical
attribute_measured: pIC50
Remember, pIC50 is on a log scale: it is -log10 of the molar concentration.

Problem: Specify the recorded pIC50 for CS(=O)(=O)c1ccc(C(=O)C2C(=O)CCCC2=O)c([N+](=O)[O-])c1 [Control 1, mesotrione] , system: AtHPPD (Arabidopsis thaliana, UniProt P93836).
Result: 6.69

====

# test_system: AtHPPD (Arabidopsis thaliana)
# Construct: gene HPD; recombinant enzyme supplied by Guangfu Yang research team; Fe(II) enzyme; PDB 1TFZ used for docking only
# Sequence (P93836 1-445): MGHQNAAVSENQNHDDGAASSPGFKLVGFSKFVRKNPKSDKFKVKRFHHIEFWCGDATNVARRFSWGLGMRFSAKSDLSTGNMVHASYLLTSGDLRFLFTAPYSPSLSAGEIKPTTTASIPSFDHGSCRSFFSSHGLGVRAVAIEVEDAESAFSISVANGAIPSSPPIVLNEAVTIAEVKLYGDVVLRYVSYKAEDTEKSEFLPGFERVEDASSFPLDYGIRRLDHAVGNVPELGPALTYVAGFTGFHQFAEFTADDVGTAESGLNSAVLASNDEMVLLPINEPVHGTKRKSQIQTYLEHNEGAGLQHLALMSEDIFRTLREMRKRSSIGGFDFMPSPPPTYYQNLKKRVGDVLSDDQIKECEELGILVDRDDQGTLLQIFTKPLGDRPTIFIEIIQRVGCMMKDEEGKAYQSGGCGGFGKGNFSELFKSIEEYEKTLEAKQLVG
# measurement_protocol: HGD-coupled assay, maleylacetoacetate at […] nm
# Format: biochemical
# condition_parameters: read-out: IC50
attribute_measured: IC50 (nM)
Give the value, in units of nM, as a plain number.

Problem: Specify the recorded IC50 for Cc1cc(O)c(C(=O)/C=C/c2ccccc2)c(=O)o1 , system: AtHPPD (Arabidopsis thaliana).
Result: 2490
